Molecular target: EGFR L858R (Homo sapiens, UniProt P00533, L858R)
Construct: purchased Carna Bio
Sequence (P00533 25-1210 L858R): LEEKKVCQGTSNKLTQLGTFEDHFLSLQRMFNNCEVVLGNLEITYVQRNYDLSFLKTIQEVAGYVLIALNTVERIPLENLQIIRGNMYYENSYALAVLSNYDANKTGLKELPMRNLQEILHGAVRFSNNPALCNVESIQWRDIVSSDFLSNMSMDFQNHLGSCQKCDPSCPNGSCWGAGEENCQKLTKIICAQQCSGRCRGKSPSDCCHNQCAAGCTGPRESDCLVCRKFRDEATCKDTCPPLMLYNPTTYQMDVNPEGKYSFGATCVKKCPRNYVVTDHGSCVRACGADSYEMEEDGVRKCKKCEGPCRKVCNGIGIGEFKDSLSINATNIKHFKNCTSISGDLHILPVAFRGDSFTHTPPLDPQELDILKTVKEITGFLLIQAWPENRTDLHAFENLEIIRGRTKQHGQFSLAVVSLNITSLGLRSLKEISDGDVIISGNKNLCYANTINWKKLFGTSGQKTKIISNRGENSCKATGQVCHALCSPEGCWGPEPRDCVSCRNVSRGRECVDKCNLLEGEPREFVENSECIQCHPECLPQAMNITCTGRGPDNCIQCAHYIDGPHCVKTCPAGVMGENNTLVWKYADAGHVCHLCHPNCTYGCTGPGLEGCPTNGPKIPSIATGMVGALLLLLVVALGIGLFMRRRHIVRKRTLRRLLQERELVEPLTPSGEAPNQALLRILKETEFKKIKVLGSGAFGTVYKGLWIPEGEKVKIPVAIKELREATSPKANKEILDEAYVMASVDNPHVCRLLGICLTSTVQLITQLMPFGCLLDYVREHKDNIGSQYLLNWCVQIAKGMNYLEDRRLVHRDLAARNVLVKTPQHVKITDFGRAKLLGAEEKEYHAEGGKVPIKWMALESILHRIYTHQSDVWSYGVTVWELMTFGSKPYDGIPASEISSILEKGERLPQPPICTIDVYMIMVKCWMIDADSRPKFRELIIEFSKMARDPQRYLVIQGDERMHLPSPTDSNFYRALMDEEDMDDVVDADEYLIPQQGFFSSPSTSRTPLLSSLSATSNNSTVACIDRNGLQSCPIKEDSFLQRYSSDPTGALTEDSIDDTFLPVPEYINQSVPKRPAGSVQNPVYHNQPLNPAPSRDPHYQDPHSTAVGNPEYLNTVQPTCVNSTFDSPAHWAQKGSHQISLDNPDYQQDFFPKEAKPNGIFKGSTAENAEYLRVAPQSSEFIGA
Assay: Inhibition of EGFR L858R biochemical enzymatic activity (HTRF)
Settings: 1 mM ATP, 1 h, room temperature, read-out: IC50 (nM) @L858R
Kindly apply the following: yes if IC50 is less than 70 nM, no in every other case.

CN(C)C1CCN(c2ccc3nc4n(c3c2)C23CCC(CC2)CN(CCOc2c(cnn2C)-c2cc(cn(C)c2=O)C(=O)N4)C3)CC1 [Example A119] : yes
CN1CCN(c2cc3c(cc2F)nc2n3C34CCC(CC3)CN(CCOc3c(cnn3C)-c3cc(cn(C)c3=O)C(=O)N2)C4)CC1 [Example A115] : no
CN1CCCC12CN(c1ccc3nc4n(c3c1)C13CCC(CN(CCOc5c(cnn5C)-c5cc(cn(C)c5=O)C(=O)N4)C1)C3)C2 (single isomer, unassigned) [Example A76B] : yes
CC1CCCCOc2c(cnn2C)-c2cc(cn(C)c2=O)C(=O)Nc2nc3ccc(N4CCN(C)CC4)cc3n21 (stereo not shown) [Example A19] : no
CN(C)C1CCN(c2ccc3nc4n(c3c2)C23CCC(CN(CCOc5c(cnn5C)-c5cc(cn(C)c5=O)C(=O)N4)C2)C3)CC1(F)F (single isomer, unassigned) [Example A97A] : no

[ask] Decide: IC50 of C[C@@H]1CCCOc2c(cnn2C)-c2cc(cn(C)c2=O)C(=O)Nc2nc3ccc(N(C)CCN(C)C)cc3n2C1 [Example A36] strictly below 70 nM?
[reply] yes

[ask] Decide: IC50 of CN1CC2CC1CN2c1ccc2nc3n(c2c1)C12CCC(CN(CCOc4c(cnn4C)-c4cc(cn(C)c4=O)C(=O)N3)C1)C2 (single isomer, unassigned) [Example A105A] strictly below 70 nM?
[reply] no

[ask] Decide: IC50 of CCN1CCN(c2ccc3nc4n(c3c2)C[C@H](C)CCCOc2c(cnn2C)-c2cc(cn(C)c2=O)C(=O)N4)CC1 [Example A49] strictly below 70 nM?
[reply] yes

[ask] Decide: IC50 of Cc1cc2cc(n1)-c1cnn(C)c1OCCN1CC3CCC(CC3)(C1)n1c(nc3ccccc31)NC2=O [Example B1] strictly below 70 nM?
[reply] no

[ask] Decide: IC50 of COCCN(C)c1ccc2nc3n(c2c1)C12CCC(CN(CCOc4c(cnn4C)-c4cc(cn(C)c4=O)C(=O)N3)C1)C2 (single isomer, unassigned) [Example A90B] strictly below 70 nM?
[reply] yes

[ask] Decide: IC50 of CN1CCN(C2CCN(c3ccc4nc5n(c4c3)C34CCC(CN(CCOc6c(cnn6C)-c6cc(cn(C)c6=O)C(=O)N5)C3)C4)CC2)CC1 (single isomer, unassigned) [Example A106A] strictly below 70 nM?
[reply] no

[ask] Decide: IC50 of Cn1ncc2c1OCCN1CC3CCC(C3)(C1)n1c(nc3ccc(N4CCC(N5CC(F)C5)CC4)cc31)NC(=O)c1cc-2c(=O)n(C)c1 (single isomer, unassigned) [Example A87B] strictly below 70 nM?
[reply] yes

[ask] Decide: IC50 of C[C@@H]1CCCOc2c(cnn2C)-c2cc(cn(C)c2=O)C(=O)Nc2nc3ccc(N4CCC(N(C)C)C(F)C4)cc3n2C1 (stereo partly shown) [Example A38] strictly below 70 nM?
[reply] yes

[ask] Decide: IC50 of Cn1ncc2c1OCCN1CC(CCC1(C)C)n1c(nc3ccc(N4CCOCC4)cc31)NC(=O)c1cc-2c(=O)n(C)c1 (stereo not shown) [Example A12] strictly below 70 nM?
[reply] no

[ask] Decide: IC50 of Cn1ncc2c1OCCN1CC3CCC(C3)(C1)n1c(nc3ccc(N4CCC(N5CC(F)C5)CC4)cc31)NC(=O)c1cc-2c(=O)n(C)c1 (single isomer, unassigned) [Example A87A] strictly below 70 nM?
[reply] no

====

pIC50 by entry:
Biological target: EGFR Exon19Del/T790M (Homo sapiens, UniProt P00533, DEL746-750/T790M)
Construct: purchased Carna Bio
Sequence (P00533 with tags, fused parts or gaps DEL746-750/T790M limits assumed): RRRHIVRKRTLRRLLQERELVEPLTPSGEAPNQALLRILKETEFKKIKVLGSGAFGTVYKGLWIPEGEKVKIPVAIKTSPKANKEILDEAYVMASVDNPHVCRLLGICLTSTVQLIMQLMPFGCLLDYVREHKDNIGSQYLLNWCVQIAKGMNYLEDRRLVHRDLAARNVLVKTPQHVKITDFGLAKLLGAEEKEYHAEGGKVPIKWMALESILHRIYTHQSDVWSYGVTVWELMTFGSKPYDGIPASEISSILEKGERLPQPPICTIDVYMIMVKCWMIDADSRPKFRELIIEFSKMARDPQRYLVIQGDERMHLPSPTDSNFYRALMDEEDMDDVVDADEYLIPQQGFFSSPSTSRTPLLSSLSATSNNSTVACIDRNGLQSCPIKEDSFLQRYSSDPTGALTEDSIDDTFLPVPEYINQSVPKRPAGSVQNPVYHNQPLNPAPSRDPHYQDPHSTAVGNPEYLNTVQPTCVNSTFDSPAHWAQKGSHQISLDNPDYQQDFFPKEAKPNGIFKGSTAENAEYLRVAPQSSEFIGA
Test: Inhibition of EGFR Exon19Del/T790M biochemical enzymatic activity (HTRF)
Conditions: EGFR Exon19Del/T790M, 1 mM ATP, 1 h at room temperature, read-out: IC50 @Del19-T790M
Recall that pIC50 is obtained by taking minus log10 of the concentration measured in molar.

The cases that follow already have their pIC50 on record.
Cc1cc2cc(n1)-c1cnn(C)c1OCCN1CC3CCC(CC3)(C1)n1c(nc3ccc(N4CCC5(CN(C)C5)C4)cc31)NC2=O : 8.05
Cc1cc2cc(n1)-c1cnn(C)c1OCCN1CCOCC(C1)n1c(nc3ccccc31)NC2=O (centres unmarked) [Example B7] : 6.96
Cc1cc2cc(n1)-c1cnn(C)c1OCCN1CC3CCC(C3)(C1)n1c(nc3ccc(N4CC[C@H](N(C)C)C4)cc31)NC2=O (single isomer, unassigned) [Example B41A] : 5.44

# pIC50 (compound: Cc1cc2cc(n1)-c1cnn(C)c1OCCN1CC3CCC(C3)(C1)n1c(nc3ccc(N4CC5CC4CN5C)cc31)NC2=O (single isomer, unassigned) [Example B53B] ) is 8.41

====

System: Ba/F3 cells expressing EGFR mutations
Assay: Cell proliferation assay, Ba/F3 cells expressing EGFR mutations (CellTiter-Glo, 72 hours)
Format: cell-based
Conditions: BaF3 cells, EGFR DEL19-T790-C797S, CellTiter-Glo, read-out: DEL19-T790-C797S/BaF3 GI50
assay readout: GI50 (nM)
Write the number in nM without appending the unit.

# GI50 (compound: CC(C)N1CCN(c2ccc3nc4n(c3c2)C23CCC(CN(CCOc5c(cnn5C)-c5cc(cn(C)c5=O)C(=O)N4)C2)C3)CC1 (single isomer, unassigned) [Example A108B] ) is 1

# GI50 (compound: CN(C)C1CCN(c2ccc3nc4n(c3c2)C23CCC(CN(CCOc5c(cnn5C)-c5cc(cn(C)c5=O)C(=O)N4)C2)C3)CC1(F)F (single isomer, unassigned) [Example A97A] ) is 527

# GI50 (compound: CN1C2CC1CN(c1ccc3nc4n(c3c1)C13CCC(CN(CCOc5c(cnn5C)-c5cc(cn(C)c5=O)C(=O)N4)C1)C3)C2 (single isomer, unassigned) [Example A98B] ) is 1.5

# GI50 (compound: CN(C)C1CCN(c2ccc3nc4n(c3c2)C23CCC(CN(CCOc5c(cnn5C)-c5cc(cn(C)c5=O)C(=O)N4)C2)C3)CC1(F)F (single isomer, unassigned) [Example A97B] ) is 5.6

# GI50 (compound: CN(C)CCN(C)c1ccc2nc3n(c2c1)C12CCC(CN(CCOc4c(cnn4C)-c4cc(cn(C)c4=O)C(=O)N3)C1)C2 (single isomer, unassigned) [Example A85B] ) is 1.1

# GI50 (compound: CCC1CCCOc2c(cnn2C)-c2cc(cn(C)c2=O)C(=O)Nc2nc3ccc(N4CCN(C)CC4)cc3n2C1 (single isomer, unassigned) [Example A16B] ) is 24

# GI50 (compound: Cn1ncc2c1OCCN1CC3CCC(C3)(C1)n1c(nc3ccc(N4CC(N5CCOCC5)C4)cc31)NC(=O)c1cc-2c(=O)n(C)c1 (single isomer, unassigned) [Example A69A] ) is 366

# GI50 (compound: Cn1ncc2c1OCCN1CC3CCC(C3)(C1)n1c(nc3ccc(N4CCC(N5CC(F)C5)C4)cc31)NC(=O)c1cc-2c(=O)n(C)c1 (single isomer, unassigned) [Example A94A] ) is 254

====

pIC50 by entry:
Target: EGFR (C797S L858R) (Homo sapiens, UniProt P00533, C797S/L858R)
Construct: purchased signalchem
Sequence (P00533 25-1210 C797S/L858R): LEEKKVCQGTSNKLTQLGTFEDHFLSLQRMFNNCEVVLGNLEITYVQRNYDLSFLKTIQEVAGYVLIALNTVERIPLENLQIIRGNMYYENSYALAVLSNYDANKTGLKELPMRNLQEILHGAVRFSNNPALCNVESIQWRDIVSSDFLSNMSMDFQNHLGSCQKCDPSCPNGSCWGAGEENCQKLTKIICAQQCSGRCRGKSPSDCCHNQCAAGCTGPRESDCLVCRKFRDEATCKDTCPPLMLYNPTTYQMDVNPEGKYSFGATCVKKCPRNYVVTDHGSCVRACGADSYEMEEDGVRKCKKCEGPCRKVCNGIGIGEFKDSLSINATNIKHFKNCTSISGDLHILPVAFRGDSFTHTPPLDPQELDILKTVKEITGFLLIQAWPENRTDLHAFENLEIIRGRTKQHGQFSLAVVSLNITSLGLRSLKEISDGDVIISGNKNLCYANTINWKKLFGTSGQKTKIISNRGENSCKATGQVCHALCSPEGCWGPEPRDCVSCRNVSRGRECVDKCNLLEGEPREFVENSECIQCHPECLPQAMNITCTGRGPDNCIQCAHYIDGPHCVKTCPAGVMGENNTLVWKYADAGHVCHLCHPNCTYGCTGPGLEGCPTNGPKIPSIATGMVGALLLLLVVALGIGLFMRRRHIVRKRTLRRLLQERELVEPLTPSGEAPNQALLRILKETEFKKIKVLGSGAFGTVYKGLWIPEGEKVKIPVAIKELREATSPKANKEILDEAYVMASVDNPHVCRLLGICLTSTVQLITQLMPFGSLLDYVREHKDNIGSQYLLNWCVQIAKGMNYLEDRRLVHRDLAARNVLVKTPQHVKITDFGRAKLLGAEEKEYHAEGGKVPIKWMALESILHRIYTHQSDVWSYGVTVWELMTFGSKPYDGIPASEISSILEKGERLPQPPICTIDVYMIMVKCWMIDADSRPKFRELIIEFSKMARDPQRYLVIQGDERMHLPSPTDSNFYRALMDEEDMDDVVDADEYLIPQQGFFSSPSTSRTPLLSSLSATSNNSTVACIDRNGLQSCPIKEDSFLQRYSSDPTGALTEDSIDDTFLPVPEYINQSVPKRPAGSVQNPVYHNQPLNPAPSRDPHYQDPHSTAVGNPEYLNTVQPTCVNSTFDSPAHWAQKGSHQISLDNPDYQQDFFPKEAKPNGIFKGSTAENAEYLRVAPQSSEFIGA
Test: Inhibition of EGFR (C797S L858R) biochemical enzymatic activity (HTRF)
Details: EGFR (C797S L858R), 1 mM ATP, 1 h at room temperature, read-out: IC50 @L858-C797S
pIC50: −log10 of the molar value.

Cc1cc2cc(n1)-c1cnn(C)c1OCCN1CC3CCC(C3)(C1)n1c(nc3ccc(N4CCOCC4)cc31)NC2=O (single isomer, unassigned) [Example B10B] : < 5.30
Cc1cc2cc(n1)-c1cnn(C)c1OCCN1CC3CCC(C3)(C1)n1c(nc3ccc(N4CCC5(CC4)CCN5C)cc31)NC2=O (single isomer, unassigned) [Example B54A] : < 5.30

Please examine the following record next.
// pIC50 (EGFR (C797S L858R) (Homo sapiens, UniProt P00533, C797S/L858R)) for Cc1cc2cc(n1)-c1cnn(C)c1OCCCCCn1c(nc3ccc4c(c31)CN(C1COC1)CC4)NC2=O = < 5.30

====

IC50 by entry:
Target: EGFR[T790M/C797S/L858R] (Homo sapiens, UniProt P00533, C797S/L858R/T790M)
Construct: purchased Carna Bio
Sequence (P00533 25-1210 T790M/C797S/L858R): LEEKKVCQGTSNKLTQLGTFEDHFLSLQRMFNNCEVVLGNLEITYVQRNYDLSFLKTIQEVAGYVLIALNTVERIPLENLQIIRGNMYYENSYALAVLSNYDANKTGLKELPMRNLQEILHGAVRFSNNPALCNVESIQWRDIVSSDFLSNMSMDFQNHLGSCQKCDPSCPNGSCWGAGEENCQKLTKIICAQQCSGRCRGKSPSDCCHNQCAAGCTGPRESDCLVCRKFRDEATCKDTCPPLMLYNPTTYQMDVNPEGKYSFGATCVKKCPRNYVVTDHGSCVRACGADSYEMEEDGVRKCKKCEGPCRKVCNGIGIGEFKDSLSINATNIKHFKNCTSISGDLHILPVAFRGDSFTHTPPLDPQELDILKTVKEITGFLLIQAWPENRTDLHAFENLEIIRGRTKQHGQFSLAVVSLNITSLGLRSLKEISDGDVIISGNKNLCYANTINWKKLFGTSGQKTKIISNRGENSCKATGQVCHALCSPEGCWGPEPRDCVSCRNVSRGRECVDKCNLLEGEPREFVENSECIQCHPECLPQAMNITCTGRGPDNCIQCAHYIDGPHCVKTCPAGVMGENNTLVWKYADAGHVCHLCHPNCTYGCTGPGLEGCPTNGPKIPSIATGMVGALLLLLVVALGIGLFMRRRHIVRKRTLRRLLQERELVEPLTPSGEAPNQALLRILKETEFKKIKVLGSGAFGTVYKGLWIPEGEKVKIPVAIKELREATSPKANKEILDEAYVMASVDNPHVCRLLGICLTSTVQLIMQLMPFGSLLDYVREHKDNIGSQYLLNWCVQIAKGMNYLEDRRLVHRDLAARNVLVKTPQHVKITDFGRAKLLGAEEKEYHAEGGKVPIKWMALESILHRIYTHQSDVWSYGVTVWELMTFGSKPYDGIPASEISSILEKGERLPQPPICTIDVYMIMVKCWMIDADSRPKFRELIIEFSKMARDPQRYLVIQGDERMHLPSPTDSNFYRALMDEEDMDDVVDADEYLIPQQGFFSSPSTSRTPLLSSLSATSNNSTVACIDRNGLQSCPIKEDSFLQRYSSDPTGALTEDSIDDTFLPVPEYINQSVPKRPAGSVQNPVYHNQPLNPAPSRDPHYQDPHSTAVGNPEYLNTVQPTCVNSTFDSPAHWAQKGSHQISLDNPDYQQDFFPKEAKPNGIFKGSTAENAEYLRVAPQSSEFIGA
Experiment: Inhibition of EGFR[T790M/C797S/L858R] biochemical enzymatic activity (HTRF)
Conditions: EGFR T790M-C797S-L858R, 1 mM ATP, 1 h, room temperature, read-out: IC50 (nM) @T790M- C797S - L858R

The cases that follow already have their IC50 on record.
Cn1ncc2c1OCCN1CC3CCC(C3)(C1)n1c(nc3ccc(N4CCC(N5CC(F)C5)CC4)cc31)NC(=O)c1cc-2c(=O)n(C)c1 (single isomer, unassigned) [Example A87A] : > 5000 nM
CN1C2CC1CN(c1ccc3nc4n(c3c1)C13CCC(CN(CCOc5c(cnn5C)-c5cc(cn(C)c5=O)C(=O)N4)C1)C3)C2 (single isomer, unassigned) [Example A98A] : > 5000 nM

Please examine the following record next.
// IC50 (EGFR[T790M/C797S/L858R] (Homo sapiens, UniProt P00533, C797S/L858R/T790M)) for CCn1cc2cc(c1=O)-c1cnn(C)c1OCCC[C@@H](C)Cn1c(nc3ccc(N4CCN(C)CC4)cc31)NC2=O [Example A14] = > 5000 nM

These measurements were taken from patent US20260365670A1.
